// provenance: paper PMC9911399

Biological target: T1, RBFOX1 RRM RbFoxmut (Fox-RRM*) (Homo sapiens, UniProt Q9NWB1 109-208, R118D;E147R;N151S;E152T)
T1 sequence: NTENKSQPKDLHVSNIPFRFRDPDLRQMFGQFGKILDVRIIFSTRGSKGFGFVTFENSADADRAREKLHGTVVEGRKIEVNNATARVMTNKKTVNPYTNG
Assay: EMSA; HiTS-Eq, 1 nM pool, 10 min; buffer printed only for the single-RNA assays: 10 mM Tris pH 7.5, 150 mM NaCl, 3.4 mM EDTA, 0.001% NP-40, 30 C
Conditions: tags: His6 N-terminal (pET28a); label: 5' 32P
Whole data set: some 16,000 sequences, median “ka relative to ugcaugu” near 0.096, cut for the highest 2% near 0.35. The full list was thinned out, with the highest values kept by preference.
measure: binding signal

- binder: "UGUAUGG (DNA:RNA) RNA: GGGAGACCGGAAUUCAGAUUGUCCUGUAUGGUUAAAUCCCGUCGUAGCCACCA DNA 1: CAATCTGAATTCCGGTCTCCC DNA 2: TGGTGGCTACGACGGGATT"
  result: "0.394 KA relative to UGCAUGU"
- binder: "UGUAGGC (DNA:RNA) RNA: GGGAGACCGGAAUUCAGAUUGUCCUGUAGGCUUAAAUCCCGUCGUAGCCACCA DNA 1: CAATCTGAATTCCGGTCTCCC DNA 2: TGGTGGCTACGACGGGATT"
  result: "0.115 KA relative to UGCAUGU"
